Test system: 233499-124-R-J3-PDC complex spheroid viability, % test/control;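 also: spheroids exposed to agents for one week before readout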
Experiment: Anticancer human tumor 233499-124-R-J3-PDC patient-derived colon adenocarcinoma cell line growth inhibition
Settings: second compound 10 µM; first compound 0.0949 µM; active compounds read low
outcome_measure: viability, T/C (%)
All answers are understood in %, so give the number only.

Nc1ccn(C2OC(CO)C(O)C2(F)F)c(=O)n1 (stereo not given) + NC1CCC(NC2CC2c2ccccc2)CC1; 27.3
COc1cc(C2c3cc4c(cc3C(OC3OC5COC(C)OC5C(O)C3O)C3COC(=O)C23)OCO4)cc(OC)c1O (stereo not given) + NC1CC1c1ccc(-c2cccc(O)c2)cc1; 63.1
Nc1ccccc1NC(=O)c1ccc(CNC(=O)OCc2cccnc2)cc1 + NC1CC1c1ccc(-c2cccc(O)c2)cc1; 78.2
CCN(c1cc(-c2ccc(CN3CCOCC3)cc2)cc(C(=O)NCc2c(C)cc(C)[nH]c2=O)c1C)C1CCOCC1 + NC1CCC(NC2CC2c2ccccc2)CC1; 69.4

# context switch: different molecule, same viability, T/C
Q: Which viability, T/C value belongs to NS(=O)(=O)OCC1CC(n2ccc3c(NC4CCc5ccccc54)ncnc32)CC1O (stereo not given) + NC1CCC(NC2CC2c2ccccc2)CC1 ?
Ans: 33.4

The values you see were collected from PubChem BioAssay AID1918930.
